Format: in vivo, human
Details: human, plasma, oral, rifampin plasma concentration, mean ± SD, Study 2, day 11, 2 h after drug intake, rifampin 600 mg q.d.
quantity name: concentration at 2 h (ng/mL)
Give bare numbers, in ng/mL.

The compound identified as CO[C@H]1/C=C/O[C@@]2(C)Oc3c(C)c(O)c4c(O)c(c(/C=N/N5CCN(C)CC5)c(O)c4c3C2=O)NC(=O)/C(C)=C\C=C\[C@H](C)[C@H](O)[C@@H](C)[C@@H](O)[C@@H](C)[C@H](OC(C)=O)[C@@H]1C [rifampin, reference compound] registered its concentration at 2 h at 9250

* * *

Details: human, in vivo, 560 mg
quantity name: AUC (ng·h/mL)
One number for each entry, in ng·h/mL.

The compound identified as C=CC(=O)N1CCC[C@@H](n2nc(-c3ccc(Oc4ccccc4)cc3)c3c(N)ncnc32)C1 [Ibrutinib, reference compound] registered its AUC at 529

* * *

Assay type: in vivo, human
Conditions: human, plasma, oral, rifampin plasma concentration, range, Study 2, day 11, 2 h after drug intake, rifampin 600 mg q.d.
quantity name: concentration at 2 h

The molecule identified as CO[C@H]1/C=C/O[C@@]2(C)Oc3c(C)c(O)c4c(O)c(c(/C=N/N5CCN(C)CC5)c(O)c4c3C2=O)NC(=O)/C(C)=C\C=C\[C@H](C)[C@H](O)[C@@H](C)[C@@H](O)[C@@H](C)[C@H](OC(C)=O)[C@@H]1C [rifampin, reference compound] registered its concentration at 2 h at 289 to 18400 ng/mL

* * *

Details: human, in vivo, 120 mg
quantity name: AUC(0-inf)

The compound identified as C=CC(=O)N1CCC[C@@H](n2nc(-c3ccc(Oc4ccccc4)cc3)c3c(N)ncnc32)C1 [Ibrutinib, reference compound] registered its AUC(0-inf) at 71 ng·h/mL
